- Tested on: hypoxia response element-beta-lactamase (HRE–bla)
- Measurement description: HRE-bla reporter gene assay in ME-180 cells
- Format: cell-based, human
- Experimental parameters: Homo sapiens, ME-180; Table S7; confirmatory screen; read-out: HRE–bla confirmatory Efficacy
*1 amine or outer side, *2 acyl side, *3 side chain or, on linkers, in order; H or OH if unused. Where a SMILES comes first, the peptide text is derived from it. Bridges are numbered along the chain shown (N, C = ends). Roman numbers before positions name the chains, in order. [ ]: non-standard residue; d: D form. Actinocin(9to1) = Cc1c2oc3c(C)ccc(C(=O)[*:1])c3nc-2c(C(=O)[*:2])c(N)c1=O; NMeV = CN[C@H](C(=O)O)C(C)C; Sar = CNCC(=O)O
Just a reminder that ties go to condition not met: only Emax strictly below 50% counts as condition met.

Molecule	Assigned category
COc1cc2ncnc(Nc3ccc(F)c(Cl)c3)c2cc1OCCCN1CCOCC1	condition met
Cc1nc(Nc2ncc(C(=O)Nc3c(C)cccc3Cl)s2)cc(N2CCN(CCO)CC2)n1	condition not met
CNC(=O)c1cc(Oc2ccc(NC(=O)Nc3ccc(Cl)c(C(F)(F)F)c3)cc2)ccn1	condition not met
O=c1cc(N2CCOCC2)oc2c(-c3ccccc3)cccc12	condition met
Cc1c2oc3c(C)ccc(C(=O)N[C@@H]4C(=O)N[C@H](C(C)C)C(=O)N5CCC[C@H]5C(=O)N(C)CC(=O)N(C)[C@@H](C(C)C)C(=O)O[C@@H]4C)c3nc-2c(C(=O)N[C@@H]2C(=O)N[C@H](C(C)C)C(=O)N3CCC[C@H]3C(=O)N(C)CC(=O)N(C)[C@@H](C(C)C)C(=O)O[C@@H]2C)c(N)c1=O [Actinomycin D] (I: T[dV]P[Sar][NMeV] / II: T[dV]P[Sar][NMeV]; ester I:1-I:C, II:1-II:C; linker I:N-II:N via Actinocin(9to1))	condition not met

* * *

- Test system: HIF-1α–NanoLuc
- Measurement description: HIF-1α–NanoLuc reporter gene assay (qHTS primary and confirmatory screens)
- Assay type: cell-based, human
- Experimental parameters: Homo sapiens, read-out: HIF-1α–NanoLuc confirmatory IC50
Quick list: IC50 per entry.

Molecule	IC50, nM
C[C@@H]1C[C@@H]([C@H](O)CC2CC(=O)NC(=O)C2)C(=O)[C@@H](C)C1 [Cycloheximide]	530
C[C@H]1O[C@@H](O[C@H]2CC[C@@]3(C)[C@H](CC[C@@H]4[C@@H]3C[C@@H](O)[C@]3(C)[C@@H](C5=CC(=O)OC5)CC[C@]43O)C2)C[C@H](O)[C@@H]1O[C@H]1C[C@H](O)[C@H](O[C@H]2C[C@H](O)[C@H](O[C@@H]3O[C@H](CO)[C@@H](O)[C@H](O)[C@H]3O)[C@@H](C)O2)[C@@H](C)O1 [Deslanoside]	390
CCOC(=O)C1(c2ccccc2)CCN(CCC(C#N)(c2ccccc2)c2ccccc2)CC1 [Diphenoxylate]	13700

* * *

- System: HIF-1α–NanoLuc
- Measurement description: HIF-1α–NanoLuc reporter gene assay (qHTS primary and confirmatory screens)
- Format: cell-based, human
- Experimental parameters: Homo sapiens, read-out: HIF-1α–NanoLuc primary Efficacy
*1 amine or outer side, *2 acyl side, *3 side chain or, on linkers, in order; H or OH if unused. Where a SMILES comes first, the peptide text is derived from it. Bridges are numbered along the chain shown (N, C = ends). Roman numbers before positions name the chains, in order. [ ]: non-standard residue; d: D form. Actinocin(9to1) = Cc1c2oc3c(C)ccc(C(=O)[*:1])c3nc-2c(C(=O)[*:2])c(N)c1=O; NMeV = CN[C@H](C(=O)O)C(C)C; Sar = CNCC(=O)O
Quick list: Emax per entry.

Molecule	Emax
C[C@@H]1C[C@@H]([C@H](O)CC2CC(=O)NC(=O)C2)C(=O)[C@@H](C)C1 [Cycloheximide]	92%
Cc1c2oc3c(C)ccc(C(=O)N[C@@H]4C(=O)N[C@H](C(C)C)C(=O)N5CCC[C@H]5C(=O)N(C)CC(=O)N(C)[C@@H](C(C)C)C(=O)O[C@@H]4C)c3nc-2c(C(=O)N[C@@H]2C(=O)N[C@H](C(C)C)C(=O)N3CCC[C@H]3C(=O)N(C)CC(=O)N(C)[C@@H](C(C)C)C(=O)O[C@@H]2C)c(N)c1=O [Actinomycin D] (I: T[dV]P[Sar][NMeV] / II: T[dV]P[Sar][NMeV]; ester I:1-I:C, II:1-II:C; linker I:N-II:N via Actinocin(9to1))	99%
CCOC(=O)C1(c2ccccc2)CCN(CCC(C#N)(c2ccccc2)c2ccccc2)CC1 [Diphenoxylate]	82%

* * *

- Test system: ME-180 cells
- Measurement description: Cancer cell proliferation assay, ME-180
- Assay type: cell-based
- Experimental parameters: Homo sapiens, ME-180, 72 h; Table S8; 3 days; read-out: ME-180 3-Day Viability Efficacy
Quantity: Emax (%)

Compound	Target of assay	Quantity	Meas value
C[C@H]1O[C@@H](O[C@H]2[C@@H](O)C[C@H](O[C@H]3[C@@H](O)C[C@H](O[C@H]4CC[C@@]5(C)[C@H](CC[C@@H]6[C@@H]5CC[C@]5(C)[C@@H](C7=CC(=O)OC7)CC[C@]65O)C4)O[C@@H]3C)O[C@@H]2C)C[C@H](O)[C@@H]1O [Digitoxin]	ME-180 cells	Emax	101
CCCS(=O)(=O)Nc1ccc(F)c(C(=O)c2c[nH]c3ncc(-c4ccc(Cl)cc4)cc23)c1F [Vemurafenib]	ME-180 cells	Emax	92
COC[C@H]1OC(=O)c2coc3c2[C@@]1(C)C1=C(C3=O)[C@@H]2CCC(=O)[C@@]2(C)C[C@H]1OC(C)=O [Wortmannin]	ME-180 cells	Emax	80
C[C@@H]1O[C@@H](O[C@@H]2C=C3CC[C@@H]4[C@H](CC[C@]5(C)[C@@H](c6ccc(=O)oc6)CC[C@]45O)[C@@]3(C)CC2)[C@H](O)[C@H](O)[C@H]1O [Proscillaridin A]	ME-180 cells	Emax	98

* * *

- System: HIF-1α–NanoLuc
- Measurement description: HIF-1α–NanoLuc reporter gene assay (qHTS primary and confirmatory screens)
- Assay type: cell-based, human
- Experimental parameters: Homo sapiens; Table S2; validation; read-out: Pathway inhibitors (validation) HIF-1α–NanoLuc Activity Efficacy
Quantity: Emax

> print(dat)
                                   compound  target.of.assay  meas.value
1  Oc1cccc(-c2nc(N3CCOCC3)c3oc4ncccc4c3n2)c1 [PI-103]   HIF-1α–NanoLuc         80%
2  Cn1nccc1Nc1nccc(-c2ccn([C@H](CO)c3ccc(Cl)c(F)c3)c(=O)c2)n1 [GDC-0994]   HIF-1α–NanoLuc         63%
3  C=CC(=O)Nc1cc2c(Nc3ccc(F)c(Cl)c3)ncnc2cc1OCCCN1CCOCC1 [Canertinib]   HIF-1α–NanoLuc         88%

* * *

- Tested on: ME-180 cells
- Measurement description: Cancer cell proliferation assay, ME-180
- Format: cell-based
- Experimental parameters: Homo sapiens, ME-180; Table 1; 72 h; read-out: 72-hr Viability ME-180 IC50
Quantity: IC50 (nM)

> print(dat)
                                   molecule  quantity  meas.value
1  Nc1ncn([C@@H]2O[C@H](CO)[C@@H](O)[C@H]2O)c(=O)n1      IC50       18600
2  O=C1c2c(O)ccc(O)c2C(=O)c2c(NCCNCCO)ccc(NCCNCCO)c21      IC50         110
3  COc1c(C)c2c(c(O)c1C/C=C(\C)CCC(=O)OCCN1CCOCC1)C(=O)OC2 [Mycophenolate mofetil]      IC50        1820
4  Oc1cccc(-c2nc(N3CCOCC3)c3oc4ncccc4c3n2)c1      IC50         370

* * *

- System: HIF-1α–NanoLuc
- Measurement description: HIF-1α–NanoLuc reporter gene assay (qHTS primary and confirmatory screens)
- Type: cell-based, human
- Experimental parameters: Table S2; primary screen; read-out: Pathway inhibitors (primary screen) HIF-1α–NanoLuc Activity IC50
pIC50: −log10 of the molar value.
Quantity: pIC50

> print(dat)
                               smiles.entry  meas.value
1  COc1cc([C@@H]2c3cc4c(cc3[C@H](O)[C@H]3COC(=O)[C@@H]23)OCO4)cc(OC)c1OC        6.28

* * *

- System: ME-180 cells
- Measurement description: Cancer cell proliferation assay, ME-180
- Format: cell-based
- Experimental parameters: Homo sapiens, ME-180, 72 h; Table S8; 3 days; read-out: ME-180 3-Day Viability Efficacy

Molecule	Target of assay	Emax [%]
O=C(NOCC1CC1)c1ccc(F)c(F)c1Nc1ccc(I)cc1Cl	ME-180 cells	100
O=c1cc(N2CCOCC2)oc2c(-c3ccccc3)cccc12	ME-180 cells	73
C[C@@H]1O[C@@H](O[C@H]2C[C@@H](O)[C@]3(CO)[C@H]4[C@H](O)C[C@]5(C)[C@@H](C6=CC(=O)OC6)CC[C@]5(O)[C@@H]4CC[C@]3(O)C2)[C@H](O)[C@H](O)[C@H]1O	ME-180 cells	98
COc1cccc2c1C(=O)c1c(O)c3c(c(O)c1C2=O)C[C@@](O)(C(C)=O)C[C@@H]3O[C@H]1C[C@H](N)[C@H](O)[C@H](C)O1	ME-180 cells	101
C[C@H]1O[C@@H](O[C@H]2CC[C@@]3(C)[C@H](CC[C@@H]4[C@@H]3C[C@@H](O)[C@]3(C)[C@@H](C5=CC(=O)OC5)CC[C@]43O)C2)C[C@H](O)[C@@H]1O[C@H]1C[C@H](O)[C@H](O[C@H]2C[C@H](O)[C@H](O[C@@H]3O[C@H](CO)[C@@H](O)[C@H](O)[C@H]3O)[C@@H](C)O2)[C@@H](C)O1 [Deslanoside]	ME-180 cells	97
